biological target: ΔF508-CFTR (Homo sapiens, UniProt P13569, DEL508-508); construct: host or cells: CFBE41o-, doxycycline-inducible; assay: CFTR cell surface levels using HRP-tagged ΔF508-CFTR expressing CFBE cells, in the presence of a co-corrector; type: cell-based; settings: HRP-tagged ΔF508-CFTR expressing CFBE cells, in the presence of 3 μM co-corrector
Sequence (P13569 with tags, fused parts or gaps DEL508-508): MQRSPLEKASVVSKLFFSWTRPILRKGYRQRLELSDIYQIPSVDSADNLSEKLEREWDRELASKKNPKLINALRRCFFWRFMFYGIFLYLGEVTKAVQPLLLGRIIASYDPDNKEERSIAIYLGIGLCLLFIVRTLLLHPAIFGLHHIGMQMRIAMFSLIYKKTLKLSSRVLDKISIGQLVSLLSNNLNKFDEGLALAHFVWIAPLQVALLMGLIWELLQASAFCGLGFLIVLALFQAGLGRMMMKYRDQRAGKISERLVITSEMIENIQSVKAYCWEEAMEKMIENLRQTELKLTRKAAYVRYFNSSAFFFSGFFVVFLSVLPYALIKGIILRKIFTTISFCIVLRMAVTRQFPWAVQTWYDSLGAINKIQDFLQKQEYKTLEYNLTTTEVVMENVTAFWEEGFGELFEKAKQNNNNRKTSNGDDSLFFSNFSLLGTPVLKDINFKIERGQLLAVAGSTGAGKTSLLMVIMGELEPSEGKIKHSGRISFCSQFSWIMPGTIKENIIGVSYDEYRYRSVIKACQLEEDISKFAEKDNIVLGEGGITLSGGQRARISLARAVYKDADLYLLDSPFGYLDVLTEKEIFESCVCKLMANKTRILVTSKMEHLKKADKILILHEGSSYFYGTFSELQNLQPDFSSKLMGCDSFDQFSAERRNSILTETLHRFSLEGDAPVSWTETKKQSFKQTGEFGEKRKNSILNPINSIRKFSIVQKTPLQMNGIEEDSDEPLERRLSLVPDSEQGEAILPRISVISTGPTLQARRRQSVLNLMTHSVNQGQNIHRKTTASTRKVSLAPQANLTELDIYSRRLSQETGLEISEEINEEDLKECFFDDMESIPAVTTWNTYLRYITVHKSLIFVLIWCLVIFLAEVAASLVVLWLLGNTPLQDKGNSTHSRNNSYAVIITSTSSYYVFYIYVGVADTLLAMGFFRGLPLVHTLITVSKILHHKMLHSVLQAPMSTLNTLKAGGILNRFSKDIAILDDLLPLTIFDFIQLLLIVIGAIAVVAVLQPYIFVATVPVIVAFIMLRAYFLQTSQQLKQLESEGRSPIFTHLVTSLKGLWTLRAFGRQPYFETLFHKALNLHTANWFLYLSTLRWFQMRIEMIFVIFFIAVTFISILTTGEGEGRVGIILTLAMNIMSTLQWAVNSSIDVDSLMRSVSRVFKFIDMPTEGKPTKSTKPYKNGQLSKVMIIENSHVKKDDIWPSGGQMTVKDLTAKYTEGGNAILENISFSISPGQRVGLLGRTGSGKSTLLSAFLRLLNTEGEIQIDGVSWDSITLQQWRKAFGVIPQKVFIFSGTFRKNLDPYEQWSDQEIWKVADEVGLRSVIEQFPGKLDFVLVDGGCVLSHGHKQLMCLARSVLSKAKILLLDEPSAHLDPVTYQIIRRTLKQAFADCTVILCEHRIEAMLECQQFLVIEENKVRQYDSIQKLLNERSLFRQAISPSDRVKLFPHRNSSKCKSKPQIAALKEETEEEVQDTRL
Provide the recorded % Activation for the entries that follow.
Return type: number; implicit unit %.

**Query** Request - read-out % Activation | tested on ΔF508-CFTR (Homo sapiens, UniProt P13569, DEL508-508) | compound CN1[C@@H]2CC[C@H]1C[C@@H](Oc1cc(C(=O)O)nc3c1c(C1CCC1)nn3-c1ccccc1)C2 [compound 621]
**Result** 294.75

**Query** Recorded % Activation for CN1CCN(CCCOc2cc(C(=O)O)nc3c2c(C2CCC2)nn3-c2ccccc2)CC1 [compound 634] with ΔF508-CFTR (Homo sapiens, UniProt P13569, DEL508-508), please?
**Result** 294.7

**Query** Notebook entry, ΔF508-CFTR (Homo sapiens, UniProt P13569, DEL508-508) assay: % Activation of CC(C)c1nn(-c2ccnc(Cl)c2)c2nc(C(=O)O)cc(-c3ccc(N4CCOCC4)cc3)c12 [compound 41] = ?
**Result** 301.2

---

Can you tell me EC50 for the items I'm about to list?
Biological target: ΔF508-CFTR (Homo sapiens, UniProt P13569, DEL508-508)
Construct: host or cells: CFBE41o-, doxycycline-inducible
Test: CFTR cell surface levels using HRP-tagged ΔF508-CFTR expressing CFBE cells, in the presence of a co-corrector
Type: cell-based
Conditions: HRP-tagged ΔF508-CFTR expressing CFBE cells, in the presence of 3 μM co-corrector; read-out: EC50
Text: Measuring CFTR Cell Surface Levels Using HRP-Tagged AF508-CFTR Expressing CFBE Cells The HRP-tagged AF508-CFTR cell assay measures the expression of CFTR-ΔF508 at the plasma membrane. […] When HRP-tagged AF508-CFTR is present at the plasma membrane, the HRP enzyme activity can be measured. The amount of CFTR-ΔF508 that can be rescued to the plasma membrane is correlated with the amount of functional enzyme that can be measured. […]
Hi! Could you send only the number? It should be in nM, unit omitted.

**Query** Using the record for O=C(O)c1cc(N2CCCCC2)c2c(C3CCC3)nn(-c3ccccc3)c2n1 [compound 408] , report its EC50.
**Result** 617

**Query** Need EC50, item Cc1nn(-c2ccccc2)c2nc(C(=O)O)cc(-c3ccc(N4CCOCC4)cc3)c12 [compound 1]
**Result** 1040

**Query** Item O=C(O)c1cc(N2CCC(N3CCC(C(F)(F)F)C3)CC2)c2c(C3CCC3)nn(-c3ccc(F)cc3)c2n1 (stereo not shown) [compound 869] has what recorded EC50?
**Result** 37.7

**Query** Given the entry CC(C)c1nn(-c2ccc(F)cc2)c2nc(C(=O)O)cc(N3CCC4(CCN(C)CC4)CC3)c12 [compound 781] , report its measured EC50.
**Result** 1560

**Query** Entry CN1CCC([C@@H](F)COc2cc(C(=O)O)nc3c2c(C2CCC2)nn3-c2ccccc2)CC1 [compound 482] : reported EC50 = ?
**Result** 709

**Query** Would you mind telling me what EC50 value was observed for CC(C)c1nn(-c2cccc(N(C)C)c2)c2nc(C(=O)O)cc(OCC3CCOCC3)c12 [compound 602] ?
**Result** 134

**Query** Reported EC50 for CN1CCN(CCCOc2cc(C(=O)O)nc3c2c(C2CCC2)nn3-c2ccccc2)CC1 [compound 634] : what is it?
**Result** 2570

**Query** Param item = O=C(CN1CCN(c2cc(C(=O)O)nc3c2c(C2CCC2)nn3-c2ccccc2)CC1)NC1CCCCC1 [compound 540] ; retrieve measured EC50.
**Result** 324

**Query** Given CCCN1CCCN(c2cc(C(=O)O)nc3c2c(C(C)C)nn3-c2ccc(F)cc2)CC1 [compound 766] , state its recorded EC50.
**Result** 1180

**Query** Give the measured EC50 of O=C(O)c1cc(N2CCC(N3CCOCC3)CC2)c2c(C3CCC3)nn(-c3cccc(C(F)(F)F)c3)c2n1 [compound 826] .
**Result** 102

---

molecular target: ΔF508-CFTR (Homo sapiens, UniProt P13569, DEL508-508); construct: host or cells: CFBE41o-, doxycycline-inducible; experiment: CFTR cell surface levels using HRP-tagged ΔF508-CFTR expressing CFBE cells, in the presence of a co-corrector; format: cell-based; conditions: HRP-tagged ΔF508-CFTR expressing CFBE cells, in the presence of 3 μM co-corrector; read-out: EC50
Measured endpoint: EC50 (µM)
Report only the number, with the unit µM understood.

**Query** Entry O=C(O)c1cc(N2CCN(CCOCCO)CC2)c2c(C3CCC3)nn(-c3ccccc3)c2n1 has what EC50?
**Result** 1.41

**Query** Consider the compound shown here: CC(C)c1nn(-c2ccnc(N3CCCC3)c2)c2nc(C(=O)O)cc(-c3ccc(N4CCC(C#N)CC4)cc3)c12 What is its recorded EC50?
**Result** 0.323

**Query** Param item = CC(C)(C)c1nn(-c2ccccc2)c2nc(C(=O)O)cc(-c3ccc(N4CCOCC4)cc3)c12 ; retrieve measured EC50.
**Result** 0.393

**Query** Any idea what EC50 was measured for Cc1nn(-c2ccccc2)c2nc(C(=O)O)cc(N3CCN(C(=O)N4CCOCC4)CC3)c12 ?
**Result** 3.34

---

Biological target: ΔF508-CFTR (Homo sapiens, UniProt P13569, DEL508-508)
Construct: host or cells: CFBE41o-, doxycycline-inducible
Test: CFTR cell surface levels using HRP-tagged ΔF508-CFTR expressing CFBE cells, in the presence of a co-corrector
Type: cell-based
Details: HRP-tagged ΔF508-CFTR expressing CFBE cells, in the presence of 3 μM co-corrector; read-out: EC50
From the text: Measuring CFTR Cell Surface Levels Using HRP-Tagged AF508-CFTR Expressing CFBE Cells The HRP-tagged AF508-CFTR cell assay measures the expression of CFTR-ΔF508 at the plasma membrane. […] When HRP-tagged AF508-CFTR is present at the plasma membrane, the HRP enzyme activity can be measured. The amount of CFTR-ΔF508 that can be rescued to the plasma membrane is correlated with the amount of functional enzyme that can be measured. […]
Task for the reader: assign each of the following molecules its reported EC50.
Quick note: give the figure in nM, leave out the unit.

**Query** Query (molecule): O=C(O)c1cc(N2CCC(CN3CCOCC3)CC2)c2c(C3CCC3)nn(C3CCCCC3)c2n1 [compound 806] ; field requested: EC50
**Result** 225

**Query** Data request, read-out EC50, for COCCC1CCN(c2cc(C(=O)O)nc3c2c(C(C)C)nn3-c2cccc(C)c2)CC1 [compound 228]
**Result** 397

**Query** Fill blank: measured EC50 of the molecule CC(C)c1nn([C@@H]2CCC[C@@H](OCc3ccccc3)C2)c2nc(C(=O)O)cc(-c3ccc(N4CCOCC4)cc3)c12 [compound 163] is ____.
**Result** 423

**Query** Any idea what EC50 was measured for CC(C)c1nn(-c2cccc(N3CCC(F)C3)c2)c2nc(C(=O)O)cc(-c3ccc(N4CCOCC4)cc3)c12 (centres unmarked) [compound 165] ?
**Result** 515

**Query** Reported EC50 for O=C(O)c1cc(N2CCC[C@@H](N3CCCC3=O)C2)c2c(C3CCC3)nn(-c3ccccc3)c2n1 [compound 697] : what is it?
**Result** 1270

---

biological target: ΔF508-CFTR (Homo sapiens, UniProt P13569, DEL508-508); construct: host or cells: CFBE41o-, doxycycline-inducible; test: CFTR cell surface levels using HRP-tagged ΔF508-CFTR expressing CFBE cells, intrinsic corrector capacity; type: cell-based; settings: HRP-tagged ΔF508-CFTR CFBE41o- cells, compounds alone (intrinsic corrector capacity), 20 hours at 33° C.; positive control 3 μM corrector
For each of the molecules below, state its % Activation.
Reply with the number, then its unit.

**Query** Requested read-out % Activation, target or system ΔF508-CFTR (Homo sapiens, UniProt P13569, DEL508-508), entry CC(C)c1nn(C2CCCCC2)c2nc(C(=O)O)cc(-c3cnc(N4CCCC(C#N)C4)nc3)c12 (stereo not drawn)
**Result** 199.1%

**Query** Hello, I am looking for reported % Activation with ΔF508-CFTR (Homo sapiens, UniProt P13569, DEL508-508) for Cc1nn(-c2cnn(C)c2)c2nc(C(=O)O)cc(-c3ccc(N4CCOCC4)cc3)c12 . Could you help?
**Result** 15.23%

**Query** Recorded % Activation for Cc1nn(-c2ccc(F)cc2F)c2nc(C(=O)O)cc(-c3ccc(N4CCOCC4)nc3)c12 with ΔF508-CFTR (Homo sapiens, UniProt P13569, DEL508-508), please?
**Result** 130.4%

**Query** Write down the reported % Activation of CN(c1ccc(-c2cc(C(=O)O)nc3c2c(C2CCC2)nn3-c2ccccc2)cn1)C1CCOCC1 , test system: ΔF508-CFTR (Homo sapiens, UniProt P13569, DEL508-508).
**Result** 252.9%

**Query** Query the reported % Activation for ΔF508-CFTR (Homo sapiens, UniProt P13569, DEL508-508); item: CC(C)c1nn(-c2cccc(F)c2)c2nc(C(=O)O)cc(-c3ccc(N4CCOCC4)cc3)c12
**Result** 206.5%

**Query** Could you share what % Activation was measured for Cc1nn(-c2ccccc2)c2nc(C(=O)O)cc(OCC3CCCC3(F)F)c12 (stereo not drawn) , tested on ΔF508-CFTR (Homo sapiens, UniProt P13569, DEL508-508)?
**Result** 101.73%

**Query** # returns recorded % Activation (system: ΔF508-CFTR (Homo sapiens, UniProt P13569, DEL508-508)) for COCCN(C)c1ccc(-c2cc(C(=O)O)nc3c2c(C(C)C)nn3-c2cccc(N3CCCC3)c2)cn1
**Result** 375.87%

**Query** Short answer please: % Activation, ΔF508-CFTR (Homo sapiens, UniProt P13569, DEL508-508), entry CC(C)(CO)c1nn(-c2ccccc2)c2nc(C(=O)O)cc(-c3ccc(N4CCOCC4)nc3)c12
**Result** 2.873%

**Query** Look up % Activation with ΔF508-CFTR (Homo sapiens, UniProt P13569, DEL508-508) for this molecule: Cc1nn(-c2ccccc2)c2nc(C(=O)O)cc(OCC3(C)CC(F)(F)C3)c12
**Result** 64.285%

**Query** Lookup: % Activation / ΔF508-CFTR (Homo sapiens, UniProt P13569, DEL508-508) / COCCN(C)c1ccc(-c2cc(C(=O)O)nc3c2c(C(C)C)nn3-c2cccc(N3CCOCC3)c2)cc1
**Result** 282.4%

**Query** Provide value of % Activation for this record tested with ΔF508-CFTR (Homo sapiens, UniProt P13569, DEL508-508): Cc1nn(-c2ccccc2)c2nc(C(=O)O)cc(-c3ccc(N4CCN(CCO)CC4)cc3)c12
**Result** 20.98%

**Query** Recorded % Activation for CC(C)c1nn(C2CCCCC2)c2nc(C(=O)O)cc(-c3cnc(N4CCOCC4)nc3)c12 with ΔF508-CFTR (Homo sapiens, UniProt P13569, DEL508-508), please?
**Result** 184.8%

Provenance of the data: patent US9796711B2
